Data credit: patent US20250368745A1

Biological target: T1, human IL-18BP (human, UniProt O95998 31-194)
T1 construct: UniProt printed as 095998; also called hIL-18BP
T1 sequence: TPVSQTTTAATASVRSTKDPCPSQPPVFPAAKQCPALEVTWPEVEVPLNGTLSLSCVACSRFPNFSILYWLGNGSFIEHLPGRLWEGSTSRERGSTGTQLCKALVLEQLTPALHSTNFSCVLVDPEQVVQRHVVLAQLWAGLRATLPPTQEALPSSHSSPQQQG
Test: BLI, apparent KD
pKd: −log10 of the molar value.
quantityName: pKd

{"binder": "SA301a HC-S54T (antibody, name in Kabat numbering, V domains shown, IgG1 kappa) VH: QVQLQESGPGLVKPSQTLSLTCTVSGYSITSDYNSHWIRQPPGKGLEWIGYIHYTGSTNYNPSLKSRVTISRDTSKNQFSLKLSSVTAADTAVYYCARNYGSIYVNYFDYWGQGTLVTVSS VL: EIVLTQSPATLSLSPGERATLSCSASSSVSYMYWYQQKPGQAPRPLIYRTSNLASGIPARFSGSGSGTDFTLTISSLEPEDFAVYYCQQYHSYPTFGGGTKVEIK", "quantityName": "pKd", "readoutNumber": 8.94}
{"binder": "SA301a HC-H52T (antibody, name in Kabat numbering, V domains shown, IgG1 kappa) VH: QVQLQESGPGLVKPSQTLSLTCTVSGYSITSDYNSHWIRQPPGKGLEWIGYITYSGSTNYNPSLKSRVTISRDTSKNQFSLKLSSVTAADTAVYYCARNYGSIYVNYFDYWGQGTLVTVSS VL: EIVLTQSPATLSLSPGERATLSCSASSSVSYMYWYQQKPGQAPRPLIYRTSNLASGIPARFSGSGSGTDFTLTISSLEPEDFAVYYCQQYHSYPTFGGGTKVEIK", "quantityName": "pKd", "readoutNumber": 8.72}
{"binder": "SA301a HC-S54P (antibody, name in Kabat numbering, V domains shown, IgG1 kappa) VH: QVQLQESGPGLVKPSQTLSLTCTVSGYSITSDYNSHWIRQPPGKGLEWIGYIHYPGSTNYNPSLKSRVTISRDTSKNQFSLKLSSVTAADTAVYYCARNYGSIYVNYFDYWGQGTLVTVSS VL: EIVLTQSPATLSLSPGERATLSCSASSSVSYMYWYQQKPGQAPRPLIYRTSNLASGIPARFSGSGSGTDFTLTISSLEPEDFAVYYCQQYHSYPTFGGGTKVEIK", "quantityName": "pKd", "readoutNumber": 8.95}
{"binder": "SA301a HC-S54Q (antibody, name in Kabat numbering, V domains shown, IgG1 kappa) VH: QVQLQESGPGLVKPSQTLSLTCTVSGYSITSDYNSHWIRQPPGKGLEWIGYIHYQGSTNYNPSLKSRVTISRDTSKNQFSLKLSSVTAADTAVYYCARNYGSIYVNYFDYWGQGTLVTVSS VL: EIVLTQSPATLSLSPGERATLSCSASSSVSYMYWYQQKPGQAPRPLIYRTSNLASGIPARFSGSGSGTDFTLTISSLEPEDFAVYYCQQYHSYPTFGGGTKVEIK", "quantityName": "pKd", "readoutNumber": 8.64}
{"binder": "SA301a HC-Y50D (antibody, name in Kabat numbering, V domains shown, IgG1 kappa) VH: QVQLQESGPGLVKPSQTLSLTCTVSGYSITSDYNSHWIRQPPGKGLEWIGDIHYSGSTNYNPSLKSRVTISRDTSKNQFSLKLSSVTAADTAVYYCARNYGSIYVNYFDYWGQGTLVTVSS VL: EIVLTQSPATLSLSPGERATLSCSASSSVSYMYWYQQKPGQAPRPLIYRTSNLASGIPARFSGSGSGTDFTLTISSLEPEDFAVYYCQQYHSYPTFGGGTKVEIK", "quantityName": "pKd", "readoutNumber": 8.28}
